// reported Removal of Heavy metals Cd (%) for each item listed
# experiment: Removal test of heavy metals of active ingredients (pig skin, ICP-MS): Cd
# run-conditions: 1.0 wt % aqueous solution, contaminated pig skin

compound	units-label	Removal of Heavy metals Cd (%)
C1CNCCNCCNCCN1	%	91.4
O=C(O)c1ccc(N(CCN(CCN(c2ccc(C(=O)O)cc2)c2ccc(C(=O)O)cc2)c2ccc(C(=O)O)cc2)CCN(c2ccc(C(=O)O)cc2)c2ccc(C(=O)O)cc2)cc1	%	90.5
O=C(O)c1ccc(N2CCCN(c3ccc(C(=O)O)o3)CCN(c3ccc(C(=O)O)o3)CCCN(c3ccc(C(=O)O)o3)CC2)o1	%	90.9
O=C(O)c1ccc(N2CCN(c3ccc(C(=O)O)o3)CCN(c3ccc(C(=O)O)o3)CCN(c3ccc(C(=O)O)o3)CC2)o1	%	93.4
O=C(O)c1cncc(N2CCN(c3cncc(C(=O)O)c3)CCN(c3cncc(C(=O)O)c3)CCN(c3cncc(C(=O)O)c3)CC2)c1	%	90.7
O=C(O)CN(CCN(CC(=O)O)CC(=O)O)CC(=O)O [1(EDTA), Ethylenediaminetetraacetic acid, reference compound]	%	88.3
O=C(O)c1ccc(N2CCCN(c3ccc(C(=O)O)cc3)CCN(c3ccc(C(=O)O)cc3)CCCN(c3ccc(C(=O)O)cc3)CC2)cc1	%	91.1
O=C(O)CN(CCN(CCN(CC(=O)O)CC(=O)O)CC(=O)O)CCN(CC(=O)O)CC(=O)O	%	94.1
NCCNCCNCCN [Trientine, Triethylenetetramine, reference compound]	%	92.3
O=C(O)CN1CCN(CC(=O)O)CCN(CC(=O)O)CCN(CC(=O)O)CC1	%	93.7
O=C(O)CN1CCCN(CC(=O)O)CCN(CC(=O)O)CCCN(CC(=O)O)CC1	%	91.9
O=C(O)c1ccc(N2CCN(c3ccc(C(=O)O)cc3)CCN(c3ccc(C(=O)O)cc3)CCN(c3ccc(C(=O)O)cc3)CC2)cc1	%	91.6
O=C(O)c1ccc(N(CCN(CCN(c2ccc(C(=O)O)o2)c2ccc(C(=O)O)o2)c2ccc(C(=O)O)o2)CCN(c2ccc(C(=O)O)o2)c2ccc(C(=O)O)o2)o1	%	91.8
O=C(O)c1cncc(N2CCCN(c3cncc(C(=O)O)c3)CCN(c3cncc(C(=O)O)c3)CCCN(c3cncc(C(=O)O)c3)CC2)c1	%	91.0

###

Items are presented alongside their recorded Area (mAU*min) 30 min.
# experiment: Formaldehyde removing ability test (GC)
# run-conditions: formaldehyde GC area after 30 min, 2.0% formaldehyde solution, 3 molar equivalents, room temperature

molecule	units-label	Area (mAU*min) 30 min
O=C(O)c1ccc(N2CCCN(c3ccc(C(=O)O)o3)CCN(c3ccc(C(=O)O)o3)CCCN(c3ccc(C(=O)O)o3)CC2)o1	mAU*min	0.170
NCCNCCNCCN [Trientine, Triethylenetetramine, reference compound]	mAU*min	0.168
O=C(O)c1ccc(N2CCN(c3ccc(C(=O)O)cc3)CCN(c3ccc(C(=O)O)cc3)CCN(c3ccc(C(=O)O)cc3)CC2)cc1	mAU*min	0.183
O=C(O)c1cncc(N2CCN(c3cncc(C(=O)O)c3)CCN(c3cncc(C(=O)O)c3)CCN(c3cncc(C(=O)O)c3)CC2)c1	mAU*min	0.181
C1CNCCNCCNCCN1	mAU*min	0.181
O=C(O)CN1CCCN(CC(=O)O)CCN(CC(=O)O)CCCN(CC(=O)O)CC1	mAU*min	0.182
O=C(O)c1ccc(N(CCN(CCN(c2ccc(C(=O)O)cc2)c2ccc(C(=O)O)cc2)c2ccc(C(=O)O)cc2)CCN(c2ccc(C(=O)O)cc2)c2ccc(C(=O)O)cc2)cc1	mAU*min	0.168
